Tested on: Variovorax paradoxus β-aminotransferase
METHOD: Resolution of substrates with Variovorax paradoxus β-aminotransferase
Type: biochemical
MEASUREMENT_PARAMETERS: cell lysate, 5 hours
OBSERVED_PROPERTY: Peak consumption (later eluting peak) (%)
Numbers only, in %.

[[record]]
compound = "NC(CC(=O)O)c1cc2ccccc2o1 (centres unmarked)"
target_desc = "Variovorax paradoxus β-aminotransferase"
observed_property = "Peak consumption (later eluting peak)"
value_measured = 98

[[record]]
compound = "NC(CC(=O)O)c1ccc2ccccc2c1 (centres unmarked)"
target_desc = "Variovorax paradoxus β-aminotransferase"
observed_property = "Peak consumption (later eluting peak)"
value_measured = 50


Now consider a different compound.
// lookup Peak consumption (later eluting peak) for NC(CC(=O)O)c1ccc(Oc2ccccc2)cc1 (centres unmarked)
58

====

System: β-aminotransferase enzyme from Variovorax paradoxus (CC-KGbPHe-I14)
METHOD: D-β-aminotransferase keto acid substrate specificity
Type: biochemical
MEASUREMENT_PARAMETERS: rate of conversion of D-β-phenylalanine to 3-keto-3-phenylpropionic acid as percent of the rate using α-ketoglutarate; 10 mg/ml α-keto acceptor, 1 hour, 37° C.
OBSERVED_PROPERTY: Relative Activity (%)
One number for each entry, in %.

// each molecule listed below needs its Relative Activity
1. O=C(O)CCC(=O)CC(=O)O
2. O=C(O)CCC(=O)CCC(=O)O
3. O=C(O)CC(=O)C(=O)O
4. O=C(O)CC(=O)CC(=O)O
5. O=C(O)CCC(=O)C(=O)O [α-ketoglutarate]

6
0
54
0
100

Okay, here is my list. What is Relative Activity for each of these?
1. O=C(O)CCCC(=O)C(=O)O
2. CC(=O)C(=O)O

1: 0.6; 2: 14

====

Test system: Variovorax paradoxus β-aminotransferase
METHOD: Resolution of substrates with Variovorax paradoxus β-aminotransferase
Format: biochemical
MEASUREMENT_PARAMETERS: cell lysate, 23 hours
Description: […] Reactions were typically run at 1 ml scale with gentle shaking at 26° C. 10 ul of 2N HCl was added to a plastic screw capped vial and 90ul of sample was then added. […] Samples were derivatized using Marfey's reagent, N•-(2,4-dinitro-5-fluorophenyl)-L-alaninamide. […] The supernatants were analyzed using an Eclipse XDB-C8 column, 4.6×150 mm, eluting with methanol gradient in water, from 50% methanol to 100% methanol. […]
OBSERVED_PROPERTY: Peak consumption (later eluting peak) (%)
One number for each entry, in %.

[[record]]
compound = "N[C@H](CC(=O)O)c1cccc([N+](=O)[O-])c1 [m-nitro-β-phenylalanine]"
value_measured = 95

[[record]]
compound = "N[C@H](CC(=O)O)c1ccccc1 (racemic) [β-phenylalanine]"
value_measured = 82

[[record]]
compound = "COc1ccc([C@H](N)CC(=O)O)cc1 [p-methoxy-β-phenylalanine]"
value_measured = 80


Suppose we examine the compound N[C@H](CC(=O)O)c1ccc(F)cc1 [p-fluoro-β-phenylalanine] ; what Peak consumption (later eluting peak) value has been reported?
82
